# Subject Of Test: human Nav1.8 (Homo sapiens (Human), UniProt Q9Y5Y9)
# Sequence (Q9Y5Y9 whole entry): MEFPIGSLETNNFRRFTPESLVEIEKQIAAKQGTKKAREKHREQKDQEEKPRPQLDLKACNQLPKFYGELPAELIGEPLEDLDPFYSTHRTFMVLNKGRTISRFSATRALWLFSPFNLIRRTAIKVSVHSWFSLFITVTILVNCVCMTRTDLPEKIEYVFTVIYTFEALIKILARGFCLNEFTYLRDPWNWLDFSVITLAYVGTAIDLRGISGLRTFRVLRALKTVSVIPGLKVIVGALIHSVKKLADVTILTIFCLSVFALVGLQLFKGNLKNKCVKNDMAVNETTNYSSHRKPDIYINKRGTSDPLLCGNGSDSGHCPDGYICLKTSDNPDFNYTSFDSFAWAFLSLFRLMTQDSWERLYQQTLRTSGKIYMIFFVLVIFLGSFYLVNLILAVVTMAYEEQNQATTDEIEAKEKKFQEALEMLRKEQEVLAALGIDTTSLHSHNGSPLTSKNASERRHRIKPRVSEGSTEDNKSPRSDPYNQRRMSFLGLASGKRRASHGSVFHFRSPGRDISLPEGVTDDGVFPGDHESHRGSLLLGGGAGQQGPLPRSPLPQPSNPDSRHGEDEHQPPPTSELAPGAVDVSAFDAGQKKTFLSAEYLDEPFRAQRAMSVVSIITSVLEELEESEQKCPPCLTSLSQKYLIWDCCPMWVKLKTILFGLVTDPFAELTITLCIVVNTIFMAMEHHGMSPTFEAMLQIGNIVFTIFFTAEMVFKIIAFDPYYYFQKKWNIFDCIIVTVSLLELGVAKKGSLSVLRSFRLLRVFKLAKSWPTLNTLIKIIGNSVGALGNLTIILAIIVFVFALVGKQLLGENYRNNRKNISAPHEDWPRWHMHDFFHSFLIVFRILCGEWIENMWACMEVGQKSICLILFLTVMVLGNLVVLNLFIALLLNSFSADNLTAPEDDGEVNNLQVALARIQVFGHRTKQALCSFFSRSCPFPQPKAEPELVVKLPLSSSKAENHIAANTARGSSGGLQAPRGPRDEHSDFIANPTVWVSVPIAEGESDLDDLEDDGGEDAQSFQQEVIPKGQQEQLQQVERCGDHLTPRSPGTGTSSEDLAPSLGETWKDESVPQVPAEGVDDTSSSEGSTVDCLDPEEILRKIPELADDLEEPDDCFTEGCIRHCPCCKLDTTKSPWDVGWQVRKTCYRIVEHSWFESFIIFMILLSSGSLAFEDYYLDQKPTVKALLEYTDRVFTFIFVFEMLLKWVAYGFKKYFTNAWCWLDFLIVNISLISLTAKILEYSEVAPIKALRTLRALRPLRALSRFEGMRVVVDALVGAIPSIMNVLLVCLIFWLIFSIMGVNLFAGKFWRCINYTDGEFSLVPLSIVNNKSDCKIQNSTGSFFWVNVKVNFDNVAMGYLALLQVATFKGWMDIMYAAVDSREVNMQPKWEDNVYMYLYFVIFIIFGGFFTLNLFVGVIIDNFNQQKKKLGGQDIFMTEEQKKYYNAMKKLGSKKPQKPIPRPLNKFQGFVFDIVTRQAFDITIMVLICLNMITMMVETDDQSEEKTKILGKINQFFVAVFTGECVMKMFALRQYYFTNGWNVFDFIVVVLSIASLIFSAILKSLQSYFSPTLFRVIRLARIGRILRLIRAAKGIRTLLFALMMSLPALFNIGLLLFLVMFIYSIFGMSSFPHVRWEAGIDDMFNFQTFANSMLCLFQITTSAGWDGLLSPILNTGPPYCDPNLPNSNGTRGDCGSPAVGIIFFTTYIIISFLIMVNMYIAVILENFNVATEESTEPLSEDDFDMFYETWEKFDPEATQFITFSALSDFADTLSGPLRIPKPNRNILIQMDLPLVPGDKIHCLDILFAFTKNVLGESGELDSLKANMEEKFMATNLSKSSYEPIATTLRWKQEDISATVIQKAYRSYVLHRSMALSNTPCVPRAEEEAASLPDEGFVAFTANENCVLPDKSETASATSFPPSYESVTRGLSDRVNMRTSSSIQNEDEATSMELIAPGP
# Method: E-VIPR optical membrane potential assay with electrical stimulation
# Applied Conditions: HEK cells expressing human Nav1.8
Readout Name: IC50 (nM)

Known results for compounds:
Asked: Name the reported IC50 value associated with the compound COc1cc(C)ccc1Oc1ccc(C(F)(F)F)cc1C(=O)Nc1cc[nH]c(=O)c1 [Compound 47]
Given back: 135

Asked: Name the reported IC50 value associated with the compound Cc1cccc(F)c1Oc1cc(Cl)ccc1C(=O)Nc1cc[nH]c(=O)c1 [Compound 17]
Given back: 1800

Asked: Name the reported IC50 value associated with the compound Cc1cc(F)ccc1Oc1ccc(OC(F)(F)F)cc1C(=O)Nc1cc[nH]c(=O)c1 [Compound 40]
Given back: 40

Asked: Name the reported IC50 value associated with the compound O=C(Nc1cc[nH]c(=O)c1)c1ccc(C(F)(F)F)cc1Oc1ccc(F)cc1CO [Compound 157]
Given back: 58

Asked: Name the reported IC50 value associated with the compound COc1ccc(Oc2ccc(C(F)(F)F)cc2C(=O)Nc2cc[nH]c(=O)c2)c(Cl)c1 [Compound 49]
Given back: 24

Asked: Name the reported IC50 value associated with the compound O=C(Nc1cc[nH]c(=O)c1)c1ccc(Cl)cc1Oc1ccc(F)cc1F [Compound 13]
Given back: 106

P: COc1cc(F)ccc1Oc1cc(C#N)ccc1C(=O)Nc1cc[nH]c(=O)c1 [Compound 22]
Q: O=C(Nc1cc[nH]c(=O)c1)c1cc(C(F)(F)F)ccc1Oc1ccc(Cl)cc1 [Compound 58]
Asked: For the pair P and Q , which member has the lower IC50 number? Please indicate the selected item by its label.
Given back: Q

----------
# Subject Of Test: human Nav1.8 (Homo sapiens (Human))
# Method: E-VIPR optical membrane potential assay with electrical stimulation
# Applied Conditions: HEK cells expressing human Nav1.8
# Method: Sodium channels are voltage-dependent proteins that can be activated by inducing membrane voltage changes by applying electric fields. […] 7) Read Plate on E-VIPR. […] Data was analyzed and reported as normalized ratios of emission intensities measured in the 460 nm and 580 nm channels. […] The data was further reduced by calculating the initial (Ri) and final (Rf) ratios. […] The response to the stimulus R=Rf/Ri was then calculated and reported as a function of time. […]
Readout Name: IC50 (nM)

Known results for molecules:
Asked: Name the reported IC50 value associated with the molecule O=C(Nc1cc[nH]c(=O)c1)c1ccc(C(F)(F)F)cc1OCC1CCOC1 (centres unmarked) [Compound 121]
Given back: 19000

Asked: Name the reported IC50 value associated with the molecule Cc1ccc(Oc2ccc(C(F)(F)F)cc2C(=O)Nc2cc[nH]c(=O)c2)cc1 [Compound 27]
Given back: 340

Asked: Name the reported IC50 value associated with the molecule Cc1cc(F)ccc1Oc1ccc(C(F)(F)F)cc1C(=O)Nc1cc[nH]c(=O)c1 [Compound 31]
Given back: 17

Asked: Name the reported IC50 value associated with the molecule COc1ccc(Oc2ccc(Cl)cc2C(=O)Nc2cc[nH]c(=O)c2)cc1F [Compound 71]
Given back: 92

Asked: Name the reported IC50 value associated with the molecule COc1ccc(Oc2ccc(C(F)(F)F)cc2C(=O)Nc2cc[nH]c(=O)c2)cc1 [Compound 45]
Given back: 64

1: CC(C)(C)c1ccc(C(=O)Nc2cc[nH]c(=O)c2)c(Oc2ccc(C(F)(F)F)nc2)c1 [Compound 141]
2: COc1ccc(Oc2ccc(C(F)(F)F)cc2C(=O)Nc2cc[nH]c(=O)c2)cc1F [Compound 59]
Asked: For the pair 1 and 2 , which member has the lower IC50 number? Please indicate the selected item by its label.
Given back: 2
(2: 32 nM, 1: 78 nM)

1: COc1cc(F)ccc1Oc1ccc(Cl)cc1C(=O)Nc1cc[nH]c(=O)c1 [Compound 70]
2: O=C(Nc1cc[nH]c(=O)c1)c1cc(OC(F)(F)F)ccc1Oc1ccc(F)cc1Cl [Compound 37]
Asked: Param pair: 1 , 2 . Output: the one whose IC50 is numerically greater. Please indicate the selected item by its label.
Given back: 2
(2: 51 nM, 1: 13 nM)

a: COc1cc(F)ccc1Oc1cc(Cl)c(Cl)cc1C(=O)Nc1cc[nH]c(=O)c1 [Compound 114]
b: COc1cc(F)cc(Oc2ccc(C(F)(F)F)cc2C(=O)Nc2cc[nH]c(=O)c2)c1 [Compound 57]
c: O=C(Nc1cc[nH]c(=O)c1)c1cc(F)ccc1Oc1ccc(OC(F)(F)F)cc1 [Compound 101]
d: Cc1cc(C)c(Oc2ccc(F)cc2C(=O)Nc2cc[nH]c(=O)c2)cc1C [Compound 105]
e: Cc1ccccc1Oc1cc(C(F)(F)F)ccc1C(=O)Nc1cc[nH]c(=O)c1 [Compound 11]
Asked: Parameters: sort_field (IC50), sort_dir (desc). # list labels per requested ordering
Given back: b, d, c, e, a
(b: 6900 nM, d: 3550 nM, c: 120 nM, e: 56 nM, a: 1 nM)

// provenance: patent US9051270B2
